Values were extracted from patent US9840513B2.

Target: F508delCFTR cell surface expression in CFBE41o-F508delCFTR-HRP cells (Homo sapiens, UniProt P13569, DEL508-508)
Construct: fused on or other part: Horseradish peroxidase (HRP) reporter inserted in the fourth exofacial (extracellular) loop of CFTR; expression is doxycycline-inducible
Sequence (P13569 with tags, fused parts or gaps DEL508-508 limits assumed): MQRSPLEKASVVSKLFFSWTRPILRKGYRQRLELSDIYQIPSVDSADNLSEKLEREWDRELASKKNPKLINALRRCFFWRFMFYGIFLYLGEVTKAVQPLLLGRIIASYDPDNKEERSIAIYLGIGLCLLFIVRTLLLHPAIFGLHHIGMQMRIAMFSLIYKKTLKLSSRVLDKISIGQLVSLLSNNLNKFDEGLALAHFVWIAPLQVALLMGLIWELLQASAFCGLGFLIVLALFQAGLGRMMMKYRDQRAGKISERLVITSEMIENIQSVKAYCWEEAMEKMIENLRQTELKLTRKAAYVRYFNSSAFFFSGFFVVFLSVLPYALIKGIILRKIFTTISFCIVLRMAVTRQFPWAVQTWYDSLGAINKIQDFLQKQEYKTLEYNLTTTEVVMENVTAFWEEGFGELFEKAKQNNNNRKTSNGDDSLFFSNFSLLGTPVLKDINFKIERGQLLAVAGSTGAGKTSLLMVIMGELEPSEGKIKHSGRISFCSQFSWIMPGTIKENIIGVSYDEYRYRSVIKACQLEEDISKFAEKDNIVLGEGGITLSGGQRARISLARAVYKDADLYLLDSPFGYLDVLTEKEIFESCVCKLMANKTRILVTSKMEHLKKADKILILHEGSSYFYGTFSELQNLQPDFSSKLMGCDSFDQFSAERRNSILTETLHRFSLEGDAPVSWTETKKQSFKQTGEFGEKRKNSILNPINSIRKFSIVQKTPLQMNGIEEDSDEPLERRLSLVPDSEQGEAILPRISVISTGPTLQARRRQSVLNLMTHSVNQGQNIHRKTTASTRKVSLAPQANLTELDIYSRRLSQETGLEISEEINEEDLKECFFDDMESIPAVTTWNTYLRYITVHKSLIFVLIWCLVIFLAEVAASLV
Sequence (P13569 919-1480 limits assumed, stated change not applied): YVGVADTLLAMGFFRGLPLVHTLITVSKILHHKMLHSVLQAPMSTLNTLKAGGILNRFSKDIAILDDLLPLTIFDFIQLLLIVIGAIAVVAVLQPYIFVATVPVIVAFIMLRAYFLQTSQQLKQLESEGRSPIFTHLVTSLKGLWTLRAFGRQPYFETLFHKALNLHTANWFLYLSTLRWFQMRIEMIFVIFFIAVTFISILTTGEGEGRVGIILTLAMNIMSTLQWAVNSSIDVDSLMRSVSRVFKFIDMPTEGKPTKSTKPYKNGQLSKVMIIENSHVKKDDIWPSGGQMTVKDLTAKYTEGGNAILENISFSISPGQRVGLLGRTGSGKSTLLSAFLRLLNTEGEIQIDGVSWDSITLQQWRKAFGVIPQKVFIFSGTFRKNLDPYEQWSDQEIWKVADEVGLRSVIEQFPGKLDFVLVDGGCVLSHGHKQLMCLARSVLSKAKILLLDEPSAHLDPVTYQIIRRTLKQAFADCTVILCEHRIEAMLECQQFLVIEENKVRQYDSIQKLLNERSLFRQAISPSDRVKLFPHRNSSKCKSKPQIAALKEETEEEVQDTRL
Experiment: Cell Surface Expression-Horse Radish Peroxidase (CSE-HRP) Assay
Conditions: CFBE41o-F508delCFTR-HRP cells, 18-24 hours at 33° C., 8-point curve, highest concentration 20 μM

# molecule, EC50 / nM
data = [
    ("COc1ccc2c(c1)O[C@@H](Cn1ncccc1=O)C[C@H]2NC(=O)[C@@]1(C)COc2cc3c(cc21)OC(F)(F)O3", 1130),
    ("CC(C)(C)OC(=O)N[C@H]1CC[C@H]([C@@H]2C[C@H](NC(=O)[C@@]3(C)COc4cc5c(cc43)OC(F)(F)O5)c3ccc(OC(F)F)cc3O2)CC1", 1070),
    ("COc1ccc2c(c1)OC(c1ccc(=O)n(C[C@@H](O)CO)n1)C[C@H]2NC(=O)[C@@]1(C)COc2cc3c(cc21)OC(F)(F)O3 (stereo partly drawn)", 400),
    ("CC1(C(=O)Nc2cccc(F)n2)COc2cc3c(cc21)OC(F)(F)O3 (stereo not drawn)", 8390),
    ("C[C@]1(C(=O)N[C@H]2C[C@@H](C3(C(=O)O)CC3)Oc3cc(OC(F)(F)F)ccc32)COc2cc3c(cc21)OC(F)(F)O3", 1610),
    ("C[C@]1(C(=O)Nc2cc(-c3ccccc3)cn(-c3ccc(C(=O)O)cc3)c2=O)COc2cc3c(cc21)OC(F)(F)O3", 230),
]

====

Target: F508delCFTR in primary hBE cells with F508del/F508del CFTR mutation (Homo sapiens, UniProt P13569, DEL508-508)
Construct: cells isolated from CF patients with the homozygous mutation; endogenous in cells
Sequence (P13569 with tags, fused parts or gaps DEL508-508): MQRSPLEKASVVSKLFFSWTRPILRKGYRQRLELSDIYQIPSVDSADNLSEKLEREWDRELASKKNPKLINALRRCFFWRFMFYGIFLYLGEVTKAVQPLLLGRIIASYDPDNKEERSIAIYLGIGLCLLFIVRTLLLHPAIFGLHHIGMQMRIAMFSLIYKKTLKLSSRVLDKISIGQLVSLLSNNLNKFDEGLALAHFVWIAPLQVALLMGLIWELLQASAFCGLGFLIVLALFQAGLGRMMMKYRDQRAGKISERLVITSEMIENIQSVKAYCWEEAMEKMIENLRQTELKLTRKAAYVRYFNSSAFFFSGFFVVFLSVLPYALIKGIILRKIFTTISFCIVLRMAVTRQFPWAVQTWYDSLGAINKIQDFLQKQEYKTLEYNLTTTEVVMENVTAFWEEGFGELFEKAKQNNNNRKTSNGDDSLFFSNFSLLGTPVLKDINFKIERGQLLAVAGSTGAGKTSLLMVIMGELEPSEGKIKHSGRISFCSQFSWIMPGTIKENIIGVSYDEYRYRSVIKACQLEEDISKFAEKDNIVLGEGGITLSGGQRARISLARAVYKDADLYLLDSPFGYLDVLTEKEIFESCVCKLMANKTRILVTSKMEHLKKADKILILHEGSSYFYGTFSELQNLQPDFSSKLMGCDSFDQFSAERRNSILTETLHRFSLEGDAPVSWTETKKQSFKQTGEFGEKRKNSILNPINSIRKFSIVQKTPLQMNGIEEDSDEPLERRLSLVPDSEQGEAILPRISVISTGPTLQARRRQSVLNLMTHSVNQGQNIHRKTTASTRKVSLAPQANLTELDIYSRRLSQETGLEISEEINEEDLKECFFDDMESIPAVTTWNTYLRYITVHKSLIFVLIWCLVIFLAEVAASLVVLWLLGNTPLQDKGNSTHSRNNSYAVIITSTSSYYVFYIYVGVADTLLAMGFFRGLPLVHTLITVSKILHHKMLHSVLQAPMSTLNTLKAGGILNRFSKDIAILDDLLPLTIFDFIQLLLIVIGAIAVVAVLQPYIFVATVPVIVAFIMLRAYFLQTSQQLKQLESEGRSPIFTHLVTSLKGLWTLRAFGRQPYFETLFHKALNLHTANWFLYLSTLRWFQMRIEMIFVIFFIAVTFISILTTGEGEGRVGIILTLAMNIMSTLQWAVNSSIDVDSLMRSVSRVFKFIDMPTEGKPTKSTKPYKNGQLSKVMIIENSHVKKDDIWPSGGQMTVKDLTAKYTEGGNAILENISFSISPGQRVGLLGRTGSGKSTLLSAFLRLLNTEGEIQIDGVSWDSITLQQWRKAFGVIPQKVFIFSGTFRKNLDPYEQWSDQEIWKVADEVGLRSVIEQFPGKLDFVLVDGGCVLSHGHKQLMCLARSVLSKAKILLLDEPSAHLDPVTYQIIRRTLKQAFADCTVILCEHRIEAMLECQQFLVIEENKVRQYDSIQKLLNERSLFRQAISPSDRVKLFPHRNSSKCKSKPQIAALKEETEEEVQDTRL
Assay: Transepithelial Clamp Circuit on Human Bronchial Epithelial Cells Conductance Assay (hBE-TECC)
Details: primary hBE cells F508del/F508del, 18-24 hours at 37° C., equivalent short circuit current, 6 concentrations
Checkbox rule: EC50 lower than 40 nM = Yes; EC50 not lower than 40 nM = No.

# compound, answer.label
data = [
    ("C[C@]1(C(=O)N[C@@H]2C[C@H]([C@H]3CC[C@H](C(=O)O)CC3)Oc3cc(OC(F)F)ccc32)COc2cc3c(cc21)OC(F)(F)O3", "Yes"),
    ("C[C@]1(C(=O)Nc2cc3cc(C4(CO)CC4)n(C[C@@H](O)CO)c3cc2F)COc2cc3c(cc21)OC(F)(F)O3", "No"),
    ("C[C@]1(C(=O)N[C@H]2C[C@@H]([C@H]3CC[C@H](C(=O)O)CC3)Oc3cc(OC(F)(F)F)ccc32)COc2cc3c(cc21)OC(F)(F)O3", "No"),
    ("C[C@]1(C(=O)N[C@@H]2C[C@H](c3ccc(C(=O)O)cn3)Oc3cc(OC(F)F)ccc32)COc2cc3c(cc21)OC(F)(F)O3", "Yes"),
    ("Cc1ccc(NC(=O)C2(C)COc3cc4c(cc32)OC(F)(F)O4)nc1-c1cccc(C(=O)O)c1 (stereo not drawn)", "No"),
]

====

Target: F508delCFTR in primary hBE cells with F508del/F508del CFTR mutation (Homo sapiens, UniProt P13569, DEL508-508)
Construct: cells isolated from CF patients with the homozygous mutation; endogenous in cells; host or cells: primary human bronchial epithelial (hBE) cells from F508del/F508del CF patients
Experiment: Transepithelial Clamp Circuit on Human Bronchial Epithelial Cells Conductance Assay (hBE-TECC)
Type: cell-based
Conditions: relative to positive control (3 μM) coupled with control potentiator
Please note: y applies when Maximum % activity (%) is 90% or greater, and n applies otherwise.

# compound, answer.label
rows = [
    ("CC(C)(CO)c1cc2cc(NC(=O)[C@@]3(C)COc4cc5c(cc43)OC(F)(F)O5)c(F)cc2n1C[C@@H](O)CC#N [Example 179]", "n"),
    ("C[C@]1(C(=O)N[C@@H]2C[C@H]([C@H]3CC[C@H](C(=O)N4C[C@H](O)[C@@H](O)C4)CC3)Oc3cc(OC(F)(F)F)ccc32)COc2cc3c(cc21)OC(F)(F)O3 [Example 256]", "y"),
    ("COc1ccc2c(c1)O[C@@H]([C@H]1CC[C@H](C(=O)O)CC1)C[C@H]2NC(=O)[C@@]1(C)CCc2cc3c(cc21)OC(F)(F)O3 [Example 168]", "y"),
    ("COc1ccc2c(c1)O[C@@H](c1ccc(C(=O)O)cc1)C[C@H]2NC(=O)[C@@]1(C)COc2cc3c(cc21)OC(F)(F)O3 [Example 20]", "y"),
    ("C[C@]1(C(=O)N[C@@H]2C[C@H](c3ccc(CO)cn3)Oc3cc(OC(F)(F)F)ccc32)COc2cc3c(cc21)OC(F)(F)O3 [Example 177]", "y"),
]
